test-target: GDP-bound KRAS wild-type protein (Homo sapiens)
Sequence (P01116 whole entry): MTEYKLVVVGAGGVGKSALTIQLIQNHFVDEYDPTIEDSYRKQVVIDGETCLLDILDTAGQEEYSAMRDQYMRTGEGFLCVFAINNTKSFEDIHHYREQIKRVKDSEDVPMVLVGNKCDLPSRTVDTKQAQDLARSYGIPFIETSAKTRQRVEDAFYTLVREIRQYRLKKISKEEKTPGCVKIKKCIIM
assay-comment: Binding to KRAS by surface plasmon resonance (SPR), Single Cycle Kinetics
stated-conditions: SPR Single Cycle Kinetics, GDP-bound KRAS wild-type protein, 1:1 binding model; read-out: KRAS KD
pKd: −log10 of the molar value. Where a SMILES comes first, the peptide text is derived from it. Bridges are numbered along the chain shown (N, C = ends). [ ]: non-standard residue; d: D form. The star is where a group is joined. hPhe(3,5-F2-4-CF3) = N[C@@H](CCc1cc(F)c(C(F)(F)F)c(F)c1)C(=O)O; hPhe(3-Cl-4-CF3) = N[C@@H](CCc1ccc(C(F)(F)F)c(Cl)c1)C(=O)O; NPrPhe(4-CF3) = CCCN[C@@H](Cc1ccc(C(F)(F)F)cc1)C(=O)O; NMeAbu(4,4,4-F3) = CN[C@@H](CC(F)(F)F)C(=O)O; Pip(4,4-F2) = O=C(O)[C@@H]1CC(F)(F)CCN1; NMeGly(cPent) = CN[C@H](C(=O)O)C1CCCC1; Pro(4,4-F2) = O=C(O)[C@@H]1CC(F)(F)CN1; αMeF = C[C@](N)(Cc1ccccc1)C(=O)O; NMeD = CN[C@@H](CC(=O)O)C(=O)O; NMeL = CN[C@@H](CC(C)C)C(=O)O; Morpholide = C1CN(*)CCO1; NMeA = CN[C@@H](C)C(=O)O; Ac5c = NC1(C(=O)O)CCCC1; Aze = O=C(O)[C@@H]1CCN1; Ac4c = NC1(C(=O)O)CCC1; Sar = CNCC(=O)O
A collection of compounds and their measured pKd
property-label: pKd

[[record]]
compound = "CC[C@H](C)[C@@H]1NC(=O)[C@@H]2CCC/C=C/c3ccc(cc3)C[C@@H](C(=O)N(C)CC(=O)N[C@@H](CCc3ccc(Cl)c(Cl)c3)C(=O)N3C[C@H](OC(C)C)C[C@H]3C(=O)NC3(CC(C)(C)C3)C(=O)N(C)[C@@H](C3CCCC3)C(=O)N(C)[C@H](C(=O)N3CCCC3)CC(=O)N2C)N2CC/C=C\\C[C@@H](C2=O)N(C)C(=O)CN(C)C1=O [PP2596]"
property_label = "pKd"
reported_measurement = 9.80

[[record]]
compound = "CCCN1C(=O)CN(C)C(=O)CN(C)C(=O)[C@H]([C@@H](C)CC)NC(=O)[C@H](CC(C)C)N(C)C(=O)C[C@@H](C(=O)N(C)C)N(C)C(=O)[C@H](C2CCCC2)N(C)C(=O)[C@](C)(Cc2ccccc2)NC(=O)[C@@H]2CCCN2C(=O)[C@H](CCc2cc(F)c(C(F)(F)F)c(F)c2)NC(=O)CN(C)C(=O)[C@@H]1Cc1ccc(C(F)(F)F)cc1 [PP0740] ([NMeL]I[Sar][Sar][NPrPhe(4-CF3)][Sar][hPhe(3,5-F2-4-CF3)]P[αMeF][NMeGly(cPent)][NMeD]-NMe2; lactam N-11)"
property_label = "pKd"
reported_measurement = 9.33

[[record]]
compound = "CCCN1C(=O)CN(C)C(=O)CN(C)C(=O)[C@H]([C@@H](C)CC)NC(=O)[C@H](CC(C)C)N(C)C(=O)C[C@@H](C(=O)N2CCOCC2)N(C)C(=O)[C@H](C2CCCC2)N(C)C(=O)C2(CCCC2)NC(=O)[C@@H]2CC(F)(F)CCN2C(=O)[C@H](CCc2ccc(C(F)(F)F)c(Cl)c2)NC(=O)CN(C)C(=O)[C@@H]1Cc1ccc(C(F)(F)F)cc1 [PP0264] ([NMeL]I[Sar][Sar][NPrPhe(4-CF3)][Sar][hPhe(3-Cl-4-CF3)][Pip(4,4-F2)][Ac5c][NMeGly(cPent)][NMeD]-Morpholide; lactam N-11)"
property_label = "pKd"
reported_measurement = 9.38

[[record]]
compound = "CCC(CC)[C@H]1C(=O)N(C)[C@H](C(=O)N(C)C)CC(=O)N(C)[C@@H](COC)C(=O)N[C@@H]([C@@H](C)CC)C(=O)N(C2CC2)CC(=O)N(C)[C@H]2C/C=C\\CCN(C2=O)[C@@H](Cc2ccc(C(F)F)cc2)C(=O)N(C)CC(=O)N[C@@H](CCc2cc(F)c(C(F)(F)F)c(F)c2)C(=O)N2C[C@H](OC3CCC3)C[C@H]2C(=O)NC2(CC(C)(C)C2)C(=O)N1C [PP2631]"
property_label = "pKd"
reported_measurement = 9.30

[[record]]
compound = "CCO[C@@H]1C[C@H]2C(=O)NC3(CC(C)(C)C3)C(=O)N(C)[C@@H](C3CCCC3)C(=O)N(C)[C@H](C(=O)N(C)C)CC(=O)N(C)[C@@H](COC)C(=O)N[C@@H]([C@@H](C)CC)C(=O)N(C3CC3)CC(=O)N(C)[C@H]3C/C=C\\CCN(C3=O)[C@@H](CC3CCCCC3)C(=O)N(C)CC(=O)N[C@@H](CCc3cc(F)c(C(F)(F)F)c(F)c3)C(=O)N2C1 [PP2562]"
property_label = "pKd"
reported_measurement = 9.04

[[record]]
compound = "CCCN1C(=O)[C@@H]2CCN2C(=O)[C@H](C)N(C)C(=O)[C@H]([C@@H](C)CC)NC(=O)[C@H](CC(C)C)N(C)C(=O)C[C@@H](C(=O)N(C)C)N(C)C(=O)[C@H](C2CCCC2)N(C)C(=O)C2(CCC2)NC(=O)[C@@H]2CC(F)(F)CN2C(=O)[C@H](CCc2ccc(C(F)(F)F)c(Cl)c2)NC(=O)CN(C)C(=O)[C@@H]1Cc1ccc(C(F)(F)F)cc1 [PP0437] ([NMeL]I[NMeA][Aze][NPrPhe(4-CF3)][Sar][hPhe(3-Cl-4-CF3)][Pro(4,4-F2)][Ac4c][NMeGly(cPent)][NMeD]-NMe2; lactam N-11)"
property_label = "pKd"
reported_measurement = 10.44

[[record]]
compound = "CCCN(C)C(=O)[C@@H]1CC(=O)N(C)[C@@H](CC)C(=O)N[C@@H]([C@@H](C)CC)C(=O)N(C)CC(=O)N(C)[C@H]2C/C=C\\CCN(C2=O)[C@@H](Cc2ccc(C(F)(F)F)cc2)C(=O)N(C)CC(=O)N[C@@H](CCc2cc(F)c(C(F)(F)F)c(F)c2)C(=O)N2CC[C@H]2C(=O)NC2(CCC2)C(=O)N(C)[C@@H](C2CCCC2)C(=O)N1C [PP2915]"
property_label = "pKd"
reported_measurement = 8.92

[[record]]
compound = "CCCN1C(=O)[C@@H]2CCN2C(=O)CN(C)C(=O)[C@H]([C@@H](C)CC)NC(=O)[C@H](CC(C)C)N(C)C(=O)C[C@@H](C(=O)N2CCOCC2)N(C)C(=O)[C@H](CC(F)(F)F)N(C)C(=O)C2(CCCC2)NC(=O)[C@@H]2CCCN2C(=O)[C@H](CCc2cc(F)c(C(F)(F)F)c(F)c2)NC(=O)CN(C)C(=O)[C@@H]1Cc1ccc(C(F)(F)F)cc1 [PP0803] ([NMeL]I[Sar][Aze][NPrPhe(4-CF3)][Sar][hPhe(3,5-F2-4-CF3)]P[Ac5c][NMeAbu(4,4,4-F3)][NMeD]-Morpholide; lactam N-11)"
property_label = "pKd"
reported_measurement = 8.77

[[record]]
compound = "CCCN1C(=O)[C@@H]2CCN2C(=O)CN(C)C(=O)[C@H]([C@@H](C)CC)NC(=O)[C@H](CC(C)C)N(C)C(=O)C[C@@H](C(=O)N2CCOCC2)NC(=O)[C@H](C2CCCC2)N(C)C(=O)C2(CCCC2)NC(=O)[C@@H]2CCCN2C(=O)[C@H](CCc2ccc(C(F)(F)F)c(Cl)c2)NC(=O)CN(C)C(=O)[C@@H]1Cc1ccc(C(F)(F)F)cc1 [PP0349] ([NMeL]I[Sar][Aze][NPrPhe(4-CF3)][Sar][hPhe(3-Cl-4-CF3)]P[Ac5c][NMeGly(cPent)]D-Morpholide; lactam N-11)"
property_label = "pKd"
reported_measurement = 9.14

